run description: Drug-drug compatibility study (HPLC, binary mixture 1:18 ezetimibe:bempedoic acid, solid state)
Type: physicochemical
condition label: 2W 60°
Experimental: The fixed dose combination product under development is a novel combination of two drug substances and therefore determination of compatibility of the actives with each other was considered to be critical. The compatibility of the actives was assessed through HPLC analysis of binary mixtures of the drug substances at a ratio 1:18 (ezetimibe:bempedoic acid) in the solid state. […] Degradation products were evaluated for open (stressed) samples of accelerated condition (40° C./75% RH) and 60° C. […]
endpoint name: Assay (EZT) (%)
# output: bare number, implied unit %

*Q* Please look up its Assay (EZT): O=C1[C@H](CC[C@H](O)c2ccc(F)cc2)[C@@H](c2ccc(O)cc2)N1c1ccc(F)cc1
*A* 97.6

---

run description: Drug-drug compatibility study (HPLC, binary mixture 1:18 ezetimibe:bempedoic acid, solid state)
Format: physicochemical
condition label: Initial
endpoint name: SMUI (%)
# output: bare number, implied unit %

*Q* Please look up its SMUI: O=C1[C@H](CC[C@H](O)c2ccc(F)cc2)[C@@H](c2ccc(O)cc2)N1c1ccc(F)cc1 [Ezetimibe]
*A* 0.03

---

Listing of recorded pKa by entry.
run description: pKa by potentiometric titration
Format: physicochemical
condition label: determined by potentiometric titration

O=C1[C@H](CC[C@H](O)c2ccc(F)cc2)[C@@H](c2ccc(O)cc2)N1c1ccc(F)cc1 | 9.75

Here is the next item to consider.
*Q* Please look up its pKa: CC(C)(CCCCCC(O)CCCCCC(C)(C)C(=O)O)C(=O)O
*A* 4.88

---

run description: Log partition coefficient (log p)
Assay type: physicochemical
condition label: n-octanol/pH 7 aqueous phase; n-octanol: pH 7
endpoint name: logP
Form rule: numeric answer, no unit written next to it.

*Q* Please look up its logP: O=C1[C@H](CC[C@H](O)c2ccc(F)cc2)[C@@H](c2ccc(O)cc2)N1c1ccc(F)cc1
*A* 4.51

---

run description: Drug-drug compatibility study (HPLC, binary mixture 1:18 ezetimibe:bempedoic acid, solid state)
Assay type: physicochemical
condition label: 2W 60°
endpoint name: EZT cyclic ether (%)
# output: bare number, implied unit %

*Q* Please look up its EZT cyclic ether: O=C1[C@H](CC[C@H](O)c2ccc(F)cc2)[C@@H](c2ccc(O)cc2)N1c1ccc(F)cc1
*A* 0.12

---

run description: Drug-drug compatibility study (HPLC, binary mixture 1:18 ezetimibe:bempedoic acid, solid state)
Assay type: physicochemical
condition label: 4W 40° C./75% RH Open
endpoint name: SMUI (%)
# output: bare number, implied unit %

*Q* Please look up its SMUI: O=C1[C@H](CC[C@H](O)c2ccc(F)cc2)[C@@H](c2ccc(O)cc2)N1c1ccc(F)cc1 [Ezetimibe]
*A* 0.19

---

run description: Drug-drug compatibility study (HPLC, binary mixture 1:18 ezetimibe:bempedoic acid, solid state)
Type: physicochemical
condition label: Initial
endpoint name: Total impurities (%)
# output: bare number, implied unit %

*Q* Please look up its Total impurities: O=C1[C@H](CC[C@H](O)c2ccc(F)cc2)[C@@H](c2ccc(O)cc2)N1c1ccc(F)cc1
*A* 0.06

---

run description: Log partition coefficient (log p)
Type: physicochemical
condition label: octanol/pH 3.5 buffer, pH 3.5
endpoint name: logP
Form rule: numeric answer, no unit written next to it.

*Q* Please look up its logP: CC(C)(CCCCCC(O)CCCCCC(C)(C)C(=O)O)C(=O)O
*A* 4.38

---

run description: Drug-drug compatibility study (HPLC, binary mixture 1:18 ezetimibe:bempedoic acid, solid state)
Format: physicochemical
condition label: Initial
endpoint name: Assay (EZT) (%)
# output: bare number, implied unit %

*Q* Please look up its Assay (EZT): O=C1[C@H](CC[C@H](O)c2ccc(F)cc2)[C@@H](c2ccc(O)cc2)N1c1ccc(F)cc1 [Ezetimibe]
*A* 99.3

---

run description: Drug-drug compatibility study (HPLC, binary mixture 1:18 ezetimibe:bempedoic acid, solid state)
Assay type: physicochemical
condition label: 4W 40° C./75% RH Open
endpoint name: Total impurities (%)
# output: bare number, implied unit %

*Q* Please look up its Total impurities: O=C1[C@H](CC[C@H](O)c2ccc(F)cc2)[C@@H](c2ccc(O)cc2)N1c1ccc(F)cc1
*A* 2.34

---

run description: Drug-drug compatibility study (HPLC, binary mixture 1:18 ezetimibe:bempedoic acid, solid state)
Assay type: physicochemical
condition label: 4W 40° C./75% RH Open
endpoint name: EZT cyclic ether (%)
# output: bare number, implied unit %

*Q* Please look up its EZT cyclic ether: O=C1[C@H](CC[C@H](O)c2ccc(F)cc2)[C@@H](c2ccc(O)cc2)N1c1ccc(F)cc1
*A* 0.9

---

run description: pKa by potentiometric titration
Assay type: physicochemical
condition label: determined by potentiometric titration; second value
endpoint name: pKa
Form rule: numeric answer, no unit written next to it.

*Q* Please look up its pKa: CC(C)(CCCCCC(O)CCCCCC(C)(C)C(=O)O)C(=O)O [Bempedoic acid]
*A* 5.6
